Origin of the recorded values: patent US11945816B2

- testSystem: EGFR InsHH (Y764_V765insHH) transformed Ba/F3 cells (Homo sapiens, UniProt P00533, INS764HH)
- Sequence (P00533 with tags, fused parts or gaps INS764HH): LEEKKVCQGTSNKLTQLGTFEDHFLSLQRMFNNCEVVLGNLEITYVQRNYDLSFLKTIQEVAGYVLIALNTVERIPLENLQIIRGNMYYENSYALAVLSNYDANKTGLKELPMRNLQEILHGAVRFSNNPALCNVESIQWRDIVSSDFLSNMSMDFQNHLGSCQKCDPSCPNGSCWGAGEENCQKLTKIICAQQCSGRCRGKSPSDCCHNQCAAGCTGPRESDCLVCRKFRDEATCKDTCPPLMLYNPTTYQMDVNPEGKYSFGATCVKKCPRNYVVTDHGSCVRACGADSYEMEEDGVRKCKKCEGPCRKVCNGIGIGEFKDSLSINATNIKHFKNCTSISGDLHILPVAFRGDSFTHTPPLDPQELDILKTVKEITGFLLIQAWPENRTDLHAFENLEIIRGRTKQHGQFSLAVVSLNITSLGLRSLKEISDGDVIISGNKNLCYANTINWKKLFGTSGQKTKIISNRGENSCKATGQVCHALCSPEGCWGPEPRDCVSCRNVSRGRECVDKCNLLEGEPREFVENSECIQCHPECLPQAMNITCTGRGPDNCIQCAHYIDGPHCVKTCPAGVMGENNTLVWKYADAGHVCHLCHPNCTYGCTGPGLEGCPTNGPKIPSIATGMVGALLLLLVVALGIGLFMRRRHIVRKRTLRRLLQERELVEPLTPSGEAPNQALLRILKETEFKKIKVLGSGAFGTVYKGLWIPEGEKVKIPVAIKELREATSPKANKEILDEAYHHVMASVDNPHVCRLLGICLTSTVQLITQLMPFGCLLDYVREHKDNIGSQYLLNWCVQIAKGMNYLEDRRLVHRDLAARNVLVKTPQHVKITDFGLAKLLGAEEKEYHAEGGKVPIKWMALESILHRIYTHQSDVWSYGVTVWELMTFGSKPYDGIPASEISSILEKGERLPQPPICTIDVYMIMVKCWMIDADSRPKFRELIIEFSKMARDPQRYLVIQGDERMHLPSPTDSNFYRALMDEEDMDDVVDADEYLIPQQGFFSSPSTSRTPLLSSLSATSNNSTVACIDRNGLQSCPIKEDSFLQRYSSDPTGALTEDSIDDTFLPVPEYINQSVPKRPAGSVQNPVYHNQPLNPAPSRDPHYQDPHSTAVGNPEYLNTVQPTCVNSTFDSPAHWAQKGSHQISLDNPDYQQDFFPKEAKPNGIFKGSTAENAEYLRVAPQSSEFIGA
- measurementProtocol: Proliferation inhibition assay, EGFR InsHH transformed Ba/F3 cells
- protocolConditions: MTS assay, 72 hours
measurementLabel: EC50

Example entries begin here.
molecule=C=CC(=O)Nc1cccc(-n2c(=O)c(Oc3ccc(F)cc3F)cc3cnc(Nc4cnn(C(F)F)c4)nc32)c1 result="< 200 nM"
molecule="C=CC(=O)NC1CCCC(n2c(=O)c(Oc3ccc(F)cc3F)cc3cnc(Nc4cnn(C)c4)nc32)C1 (centres unmarked)" result="< 200 nM"

## Task # get_value(readout='EC50', item= C=CC(=O)Nc1cccc(-n2c(=O)c(Oc3ccc(F)cc3F)cc3cnc(Nc4cn(C)nc4OC)nc32)c1 )
## Result < 200 nM

## Task Which EC50 value belongs to C=CC(=O)Nc1cccc(-n2c(=O)c(Oc3ccc(F)cc3F)cc3cnc(Nc4ccc(N5CCC(N6CCN(C)CC6)CC5)cc4)nc32)c1 ?
## Result < 200 nM

## Task // returns reported EC50 for input C=CC(=O)N1CCCC(n2c(=O)c(Oc3ccc(F)cc3F)cc3cnc(Nc4cnn(C)c4)nc32)CC1 (centres unmarked)
## Result 200 to 600 nM

## Task Which value of EC50 has been reported for C=CC(=O)Nc1cccc(-n2c(=O)c(Oc3ccc(F)cc3F)cc3cnc(Nc4cn(C)nc4OCC)nc32)c1 in the records?
## Result < 200 nM

## Task What EC50 value was documented for this molecule, C=CC(=O)Nc1cccc(-n2c(=O)c(Oc3ccc(F)cc3F)cc3cnc(Nc4cnn(C)c4)nc32)c1 ?
## Result < 200 nM

## Task Param item = C=CC(=O)N1CCC[C@@H](n2c(=O)c(Oc3ccc(F)cc3F)cc3cnc(Nc4cnn(C5CCN(C)CC5)c4)nc32)C1 ; retrieve measured EC50.
## Result 200 to 600 nM

----------
- testSystem: HER2 InsWLV transformed Ba/F3 cells (Homo sapiens, UniProt P04626, INS773WL/M774V)
- Construct: expressed in transfected cells; host or cells: Ba/F3
- Sequence (P04626 with tags, fused parts or gaps INS773WL/M774V): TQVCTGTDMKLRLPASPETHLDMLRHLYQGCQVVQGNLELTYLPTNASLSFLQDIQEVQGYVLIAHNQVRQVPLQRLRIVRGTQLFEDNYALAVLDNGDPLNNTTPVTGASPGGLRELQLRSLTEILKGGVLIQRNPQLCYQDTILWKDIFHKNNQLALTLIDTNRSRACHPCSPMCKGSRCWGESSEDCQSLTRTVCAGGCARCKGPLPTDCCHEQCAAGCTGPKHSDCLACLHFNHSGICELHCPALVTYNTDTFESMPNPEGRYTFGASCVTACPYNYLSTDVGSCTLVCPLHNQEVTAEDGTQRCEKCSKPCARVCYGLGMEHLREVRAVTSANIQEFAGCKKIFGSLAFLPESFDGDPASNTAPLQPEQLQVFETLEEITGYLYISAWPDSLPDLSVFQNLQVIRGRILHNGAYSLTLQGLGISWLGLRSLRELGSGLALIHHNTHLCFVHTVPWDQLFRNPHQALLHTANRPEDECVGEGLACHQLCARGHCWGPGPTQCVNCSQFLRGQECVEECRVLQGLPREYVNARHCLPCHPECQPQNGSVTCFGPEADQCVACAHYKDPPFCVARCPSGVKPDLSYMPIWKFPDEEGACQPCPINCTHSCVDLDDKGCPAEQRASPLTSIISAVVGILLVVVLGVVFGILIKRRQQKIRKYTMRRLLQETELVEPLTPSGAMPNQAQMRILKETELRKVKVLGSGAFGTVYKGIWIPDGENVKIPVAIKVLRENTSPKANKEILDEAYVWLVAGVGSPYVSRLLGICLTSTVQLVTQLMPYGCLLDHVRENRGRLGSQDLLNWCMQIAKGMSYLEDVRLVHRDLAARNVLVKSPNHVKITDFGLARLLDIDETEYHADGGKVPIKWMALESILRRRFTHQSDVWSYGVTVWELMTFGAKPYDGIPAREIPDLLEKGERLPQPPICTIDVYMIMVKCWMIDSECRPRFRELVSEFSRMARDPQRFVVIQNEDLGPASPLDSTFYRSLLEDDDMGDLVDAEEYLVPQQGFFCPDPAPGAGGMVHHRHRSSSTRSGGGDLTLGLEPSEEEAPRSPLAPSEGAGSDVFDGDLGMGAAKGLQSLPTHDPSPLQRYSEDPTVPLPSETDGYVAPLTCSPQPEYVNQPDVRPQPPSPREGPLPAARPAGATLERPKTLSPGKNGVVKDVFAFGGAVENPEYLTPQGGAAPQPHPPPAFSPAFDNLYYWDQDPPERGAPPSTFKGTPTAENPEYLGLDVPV
- measurementProtocol: Proliferation inhibition assay, HER2 InsWLV transformed Ba/F3 cells
- Assay type: cell-based
- protocolConditions: MTS assay, 72 hours, Table 9 key
# reported EC50; entries follow

compound=C=CC(=O)Nc1cccc(-n2c(=O)c(Oc3ccc(F)cc3)cc3cnc(Nc4cnn(C)c4)nc32)c1 result="0.1 to 0.25 µM"
compound=C=CC(=O)Nc1cc(Nc2ncc3cc(Oc4ccc(F)cc4F)c(N)nc3n2)c(OC)cc1N(C)CCN(C)C result="0.25 to 0.5 µM"
compound=C=CC(=O)Nc1cc(Nc2ncc3cc(Nc4ccc(F)cc4F)c(=O)n(C)c3n2)c(OC)cc1OCCN(C)C result="0.1 to 0.25 µM"

## Task Would you mind telling me what EC50 value was observed for C=CC(=O)N1CCC[C@@H](n2c(=O)c(Oc3ccc(F)cc3F)cc3cnc(Nc4cnn(C5CCN(C)CC5)c4)nc32)C1 ?
## Result 0.25 to 0.5 µM

## Task What measured EC50 goes with C=CC(=O)N1CCC(Cn2c(=O)c(Oc3ccc(F)cc3F)cc3cnc(Nc4cnn(C)c4)nc32)C1 (stereo not shown) ?
## Result 0.1 to 0.25 µM

## Task I would be grateful if you could share the reported EC50 for C=CC(=O)Nc1cccc(-n2c(=O)c(Oc3ccc(F)cc3F)cc3cnc(Nc4cnn(C)c4)nc32)c1 .
## Result < 0.1 µM

## Task Name the reported EC50 value associated with the compound CN(C)C/C=C/C(=O)Nc1cccc(-n2c(=O)c(Oc3ccc(F)cc3F)cc3cnc(Nc4cnn(C)c4)nc32)c1
## Result 0.25 to 0.5 µM
